Target: Activated ERK2 (Homo sapiens (Human), UniProt P28482)
Sequence (P28482 whole entry): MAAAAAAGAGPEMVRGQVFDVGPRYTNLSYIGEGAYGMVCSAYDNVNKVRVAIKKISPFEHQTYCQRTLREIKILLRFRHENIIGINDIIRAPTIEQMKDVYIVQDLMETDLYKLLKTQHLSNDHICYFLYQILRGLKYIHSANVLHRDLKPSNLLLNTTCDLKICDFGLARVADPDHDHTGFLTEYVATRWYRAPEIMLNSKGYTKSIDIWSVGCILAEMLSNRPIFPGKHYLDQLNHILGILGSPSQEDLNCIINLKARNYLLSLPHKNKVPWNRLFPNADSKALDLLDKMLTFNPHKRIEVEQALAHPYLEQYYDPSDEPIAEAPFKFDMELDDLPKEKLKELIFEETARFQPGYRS
Test: Active ERK2 kinase assay (Mobility Shift Assay)
List of IC50 values.

# lookup: Cc1ccc(-c2n[nH]c3ccc(N4CC[C@]5(CCN(CC(=O)N6CC=C(c7ccc(-c8ncn(C)n8)cc7)CC6)C5)C4=O)cc23)cn1 on Activated ERK2 (Homo sapiens (Human), UniProt P28482), IC50 = ≤ 50 nM

# lookup: CCNc1nnc(-c2ccc(C3=CCN(C(=O)CN4CC[C@]5(CCN(c6ccc7[nH]nc(-c8ccc(OC(C)C)nc8)c7c6)C5=O)C4)CC3)cc2)o1 on Activated ERK2 (Homo sapiens (Human), UniProt P28482), IC50 = ≤ 50 nM

# lookup: CC(C)Oc1cc(-c2n[nH]c3ccc(N4CC[C@]5(CCN(CC(=O)N6CC=C(c7ccc(-c8ncn(C)n8)cc7)CC6)C5)C4=O)cc23)ccn1 on Activated ERK2 (Homo sapiens (Human), UniProt P28482), IC50 = ≤ 50 nM

# lookup: Cn1cnc(-c2ccc(N3CCN(C(=O)CN4CC[C@]5(CCN(c6ccc7[nH]nc(C8CC8)c7c6)C5=O)C4)CC3)cc2)n1 on Activated ERK2 (Homo sapiens (Human), UniProt P28482), IC50 = 50 to 250 nM

# lookup: CC(C)Oc1ccc(-c2n[nH]c3ccc(N4CCC5(CCN(CC(=O)N6CCN(c7ccc(-c8ncn(C)n8)cc7)CC6)C5)C4=O)cc23)cn1 (stereo not drawn) on Activated ERK2 (Homo sapiens (Human), UniProt P28482), IC50 = ≤ 50 nM

# lookup: CC(C)Oc1ccc(-c2n[nH]c3ccc(N4CC[C@]5(CCN(CC(=O)N6CCC(F)(c7ccc(-c8ncn(C)n8)cc7)CC6)C5)C4=O)cc23)cn1 on Activated ERK2 (Homo sapiens (Human), UniProt P28482), IC50 = ≥ 250 nM

# lookup: Cn1cc(-c2ccc(C3=CCN(C(=O)CN4CC[C@]5(CCN(c6ccc7[nH]nc(-c8ccnc(C(F)(F)F)c8)c7c6)C5=O)C4)CC3)cc2)nn1 on Activated ERK2 (Homo sapiens (Human), UniProt P28482), IC50 = ≤ 50 nM

# lookup: Cc1noc(-c2ccc(C3=CCN(C(=O)CN4CC[C@]5(CCN(c6ccc7[nH]nc(-c8ccc(OC(C)C)nc8)c7c6)C5=O)C4)CC3)cc2)n1 on Activated ERK2 (Homo sapiens (Human), UniProt P28482), IC50 = ≤ 50 nM

# lookup: CC(C)Oc1ccc(-c2n[nH]c3ccc(N4CCC5(CCN(CC(=O)N6CC=C(c7ccc(-c8ncn(C)n8)cc7)CC6)C5)C4)cc23)cn1 (stereo not drawn) on Activated ERK2 (Homo sapiens (Human), UniProt P28482), IC50 = ≥ 250 nM

# lookup: Cc1noc(-c2ccc(C3=CCN(C(=O)CN4CC[C@]5(CCN(c6ccc7[nH]nc(-c8ccnc(C(F)(F)F)c8)c7c6)C5=O)C4)CC3)cc2)n1 on Activated ERK2 (Homo sapiens (Human), UniProt P28482), IC50 = ≤ 50 nM

* * *

Target: Activated ERK2 (Homo sapiens (Human))
Assay: Active ERK2 kinase assay (Mobility Shift Assay)
pIC50: −log10 of the molar value.
PARAMETER_MEASURED: pIC50

Guide cases for pIC50, answers given:
{"columns": ["MOLECULE", "RECORDED_MEASUREMENT"],
 "data": [
  ["CCn1cnc(-c2ccc(C3=CCN(C(=O)CN4CC[C@]5(CCN(c6ccc7[nH]nc(-c8ccc(OC(C)C)nc8)c7c6)C5=O)C4)CC3)cc2)n1", "≥ 7.30"],
  ["Cn1cnc(-c2ccc(C3=CCN(C(=O)CN4CC[C@]5(CCN(c6ccc7[nH]nc(-c8ccnc(C(F)(F)F)c8)c7c6)C5=O)C4)CC3)cc2)n1", "≥ 7.30"],
  ["Cc1ccc(-c2n[nH]c3ccc(N4CCC5(CCN(CC(=O)N6CC=C(c7ccc(-c8ncn(C)n8)cc7)CC6)C5)C4=O)cc23)cn1 (stereo not drawn)", "≥ 7.30"],
  ["CC(C)Oc1ccc(-c2n[nH]c3ccc(N4CC[C@]5(CCN(CC(=O)N6CCC(C78CC(c9ncn(C)n9)(C7)C8)CC6)C5)C4=O)cc23)cn1", "≥ 7.30"],
  ["Cn1cnc(-c2ccc(C3=CCN(C(=O)CN4CC[C@]5(CCN(c6ccc7[nH]nc(C#N)c7c6)C5=O)C4)CC3)cc2)n1", "≥ 7.30"]
]}

pIC50 for Cc1cc(-c2n[nH]c3ccc(N4CCC5(CCN(CC(=O)N6CC=C(c7ccc(-c8ncn(C)n8)cc7)CC6)C5)C4=O)cc23)ccn1 (stereo not drawn) is ≥ 7.30

pIC50 for COCCn1cnc(-c2ccc(C3=CCN(C(=O)CN4CC[C@]5(CCN(c6ccc7[nH]nc(-c8ccc(OC(C)C)nc8)c7c6)C5=O)C4)CC3)cc2)n1 is ≥ 7.30

pIC50 for Cc1cc(-c2n[nH]c3ccc(N4CC[C@]5(CCN(CC(=O)N6CC=C(c7ccc(-c8ncn(C)n8)cc7)CC6)C5)C4=O)cc23)ccn1 is ≥ 7.30

pIC50 for Cc1nnc(-c2ccc(C3=CCN(C(=O)CN4CC[C@]5(CCN(c6ccc7[nH]nc(-c8ccc(OC(C)C)nc8)c7c6)C5=O)C4)CC3)cc2)o1 is ≥ 7.30

pIC50 for CC(C)Oc1ccc(-c2n[nH]c3ccc(N4CC[C@]5(CCN(CC(=O)N6CC=C(c7ccc(-c8ncn(C9CC9)n8)cc7)CC6)C5)C4=O)cc23)cn1 is ≥ 7.30

pIC50 for CC(C)Oc1ccc(-c2n[nH]c3ccc(N4CC[C@]5(CCN(CC(=O)N6CCN(c7ccc(-c8ncn(C)n8)cc7)CC6)C5)C4=O)cc23)cn1 is ≥ 7.30

pIC50 for Cn1cnc(-c2ccc(C3=CCN(C(=O)CN4CC[C@]5(CCN(c6ccc7[nH]nc(-c8ccnc(C(C)(F)F)c8)c7c6)C5=O)C4)CC3)cc2)n1 is ≥ 7.30

* * *

Target: Activated ERK1 (Homo sapiens (Human), UniProt P27361)
Sequence (P27361 whole entry): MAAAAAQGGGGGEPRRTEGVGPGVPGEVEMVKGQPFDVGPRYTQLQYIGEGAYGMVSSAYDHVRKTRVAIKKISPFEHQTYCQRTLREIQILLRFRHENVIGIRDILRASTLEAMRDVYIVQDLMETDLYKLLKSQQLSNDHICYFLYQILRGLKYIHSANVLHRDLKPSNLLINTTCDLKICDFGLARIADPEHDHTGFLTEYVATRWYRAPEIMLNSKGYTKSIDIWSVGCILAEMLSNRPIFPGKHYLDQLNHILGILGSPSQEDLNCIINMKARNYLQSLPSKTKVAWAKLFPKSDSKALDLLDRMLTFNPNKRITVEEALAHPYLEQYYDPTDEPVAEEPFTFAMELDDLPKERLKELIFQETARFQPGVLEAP
Test: Active ERK1 kinase assay (Mobility Shift Assay)
List of IC50 values.

{"columns": ["COMPOUND", "PARAMETER_MEASURED", "RECORDED_MEASUREMENT"],
 "data": [
  ["Cc1ccc(-c2n[nH]c3ccc(N4CCC5(CCN(CC(=O)N6CC=C(c7ccc(-c8ncn(C)n8)cc7)CC6)C5)C4=O)cc23)cn1 (centres unmarked) [Example 7]", "IC50", "≤ 50 nM"]
]}

In the following, a different compound is considered.
IC50 for CC(C)Nc1cc(-c2c[nH]c(C(=O)N[C@H](CO)c3cccc(Cl)c3)c2)c(Cl)cn1 [BVD-523] is ≤ 50 nM

* * *

Molecular target: Activated ERK2 (Homo sapiens (Human))
Assay: Active ERK2 kinase assay (Mobility Shift Assay)
List of IC50 values.

Guide cases for IC50, answers given:
{"columns": ["COMPOUND", "IC50"],
 "data": [
  ["CC(C)Oc1ccc(-c2n[nH]c3ccc(N4CCCC5(CCN(CC(=O)N6CC=C(c7ccc(-c8ncn(C)n8)cc7)CC6)C5)C4=O)cc23)cn1 (stereo not drawn) [Example 5]", "50 to 250 nM"],
  ["Cn1cnc(-c2ccc(C3=CCN(C(=O)CN4CC[C@]5(CCN(c6ccc7[nH]ncc7c6)C5=O)C4)CC3)cc2)n1 [Example 36]", "50 to 250 nM"],
  ["CC(C)Oc1ccc(-c2n[nH]c3ccc(N4CC[C@@]5(CCN(CC(=O)N6CC=C(c7ccc(-c8ncn(C)n8)cc7)CC6)C5)C4=O)cc23)cn1 [Example 11]", "≥ 250 nM"],
  ["Cn1cnc(-c2ccc(C3=CCN(C(=O)CN4CC[C@]5(CCN(c6ccc7[nH]nc(-c8ccc(S(C)(=O)=O)cc8)c7c6)C5=O)C4)CC3)cc2)n1 [Example 58]", "≤ 50 nM"],
  ["CC(C)Oc1ccc(-c2n[nH]c3ccc(N4CC[C@]5(CCN(CC(=O)N6CC=C(c7ccc(-c8ncn(C)n8)cc7F)CC6)C5)C4=O)cc23)cn1 [Example 55]", "≤ 50 nM"]
]}

In the following, a different compound is considered.
IC50 for CCNc1n[nH]c2ccc(N3CC[C@]4(CCN(CC(=O)N5CC=C(c6ccc(-c7ncn(C)n7)cc6)CC5)C4)C3=O)cc12 [Example 53] is 50 to 250 nM

* * *

Target: Activated ERK2 (Homo sapiens (Human), UniProt P28482)
Assay: Active ERK2 kinase assay (Mobility Shift Assay)
pIC50: −log10 of the molar value.
PARAMETER_MEASURED: pIC50

Guide cases for pIC50, answers given:
{"columns": ["MOLECULE", "STUDY_TARGET", "PARAMETER_MEASURED", "RECORDED_MEASUREMENT"],
 "data": [
  ["CC(C)Oc1ccc(-c2n[nH]c3ccc(N4CC[C@]5(CCN(CC(=O)N6CC=C(c7ccc(-n8ccnn8)cc7)CC6)C5)C4=O)cc23)cn1", "Activated ERK2 (Homo sapiens (Human), UniProt P28482)", "pIC50", "≥ 7.30"],
  ["CCNc1nnc(-c2ccc(C3=CCN(C(=O)CN4CC[C@]5(CCN(c6ccc7[nH]nc(-c8ccc(OC(C)C)nc8)c7c6)C5=O)C4)CC3)cc2)s1", "Activated ERK2 (Homo sapiens (Human), UniProt P28482)", "pIC50", "≥ 7.30"],
  ["Cn1cnc(-c2ccc(C3=CCN(C(=O)CN4CC[C@]5(CCN(c6ccc7[nH]nc(C8CC8)c7c6)C5=O)C4)CC3)cc2)n1", "Activated ERK2 (Homo sapiens (Human), UniProt P28482)", "pIC50", "≥ 7.30"],
  ["O=C(CN1CC[C@]2(CCN(c3ccc4[nH]nc(-c5ccnc(C(F)(F)F)c5)c4c3)C2=O)C1)N1CC=C(c2ccc(-c3ncc(F)cn3)cc2)CC1", "Activated ERK2 (Homo sapiens (Human), UniProt P28482)", "pIC50", "≥ 7.30"],
  ["CC(C)Oc1ccc(-c2n[nH]c3ccc(N4CC[C@]5(CCN(CC(=O)N6CC=C(c7ccc(-c8cn(C)cn8)cc7)CC6)C5)C4=O)cc23)cn1", "Activated ERK2 (Homo sapiens (Human), UniProt P28482)", "pIC50", "≥ 7.30"]
]}

pIC50 for CC(C)Oc1ccc(-c2n[nH]c3ccc(N4CC[C@]5(CCN(CC(=O)N6CC=C(c7ccc(-c8ncccn8)cn7)CC6)C5)C4=O)cc23)cn1 is 6.60 to 7.30

pIC50 for CC(C)Oc1ccc(-c2n[nH]c3ccc(N4CC[C@]5(CCN(CC(=O)N6CCC(c7ccc(-c8ncn(C)n8)cc7)CC6)C5)C4=O)cc23)cn1 is ≥ 7.30

pIC50 for CC(C)Oc1ccc(-c2n[nH]c3ccc(N4CCC5(CCN(CC(=O)N6CC=C(c7ccc(-c8ncn(C)n8)cc7)CC6)C5)C4=O)cc23)cn1 (centres unmarked) is ≥ 7.30

pIC50 for CC(C)Oc1ccc(-c2n[nH]c3ccc(N4CCC5(CCN(Cc6ccccc6)C5)C4=O)cc23)cn1 (centres unmarked) is ≤ 6.60

pIC50 for CC(C)Oc1ccc(-c2n[nH]c3ccc(N4CC[C@]5(CCN(CC(=O)N6CC=C(c7ccc(-c8ncn(C)n8)c(F)c7)CC6)C5)C4=O)cc23)cn1 is ≥ 7.30

pIC50 for CC(C)Oc1ccc(-c2n[nH]c3ccc(N4CCC5(CN(CC(=O)N6CC=C(c7ccc(-c8ncn(C)n8)cc7)CC6)C5)C4=O)cc23)cn1 is 6.60 to 7.30

pIC50 for CC(C)Oc1ccc(-c2n[nH]c3ccc(N4CC[C@]5(CCN(CC(=O)N6CC=C(c7ccc(-c8ncc(F)cn8)cc7)CC6)C5)C4=O)cc23)cn1 is ≥ 7.30

pIC50 for Cn1cc(-c2n[nH]c3ccc(N4CC[C@]5(CCN(CC(=O)N6CC=C(c7ccc(-c8ncn(C)n8)cc7)CC6)C5)C4=O)cc23)cn1 is ≥ 7.30

pIC50 for CC(C)Oc1ccc(-c2n[nH]c3ccc(N4CC[C@]5(CCN(CC(=O)N6CC=C(c7ccc(-c8ncccn8)cc7)CC6)C5)C4=O)cc23)cn1 is ≥ 7.30

These measurements were taken from patent US10493060B2.
